- Tested on: Escherichia coli
- test_name: Antibacterial activity against extended spectrum beta-lactamase-deficient Escherichia coli ATCC 25922 after 18 hrs by broth microdilution method
- Format: functional, organism-based
- condition_summary: ATCC 25922, 18 h, read-out: IC50
property_name: MIC

(Q) Can you look up the measured MIC of "C[C@H]1COc2c(N3CCN(C)CC3)c(F)cc3c(=O)c(C(=O)O)cn1c23" for me?
(A) ≤ 0.03 µM

(Q) Can you look up the measured MIC of "CCCc1cc(O)cc2c1Oc1c(Cl)c(O)c(Cl)c(CCC)c1C(=O)O2" for me?
(A) > 256 µM

(Q) Can you look up the measured MIC of "CCCc1c(Cl)c(OC)c(Cl)c2c1Oc1c(Cl)c(O)c(Cl)c(CCC)c1C(=O)O2" for me?
(A) > 256 µM

(Q) Can you look up the measured MIC of "CCCc1cc(O)c(Cl)c2c1Oc1c(Cl)c(O)c(Cl)c(CCC)c1C(=O)O2" for me?
(A) 64 µM

(Q) Can you look up the measured MIC of "CCCc1c(Cl)c(O)c(Cl)c2c1Oc1c(Cl)c(O)c(Cl)c(CCC)c1C(=O)O2" for me?
(A) > 256 µM

====

- System: Enterococcus faecium
- test_name: Antibacterial activity against vancomycin-resistant Enterococcus faecium ATCC 700221 after 18 hrs by broth microdilution method
- Assay type: functional, organism-based
- condition_summary: ATCC 700221, 18 h, read-out: IC50
Kindly state MIC for each of the entries shown.

(Q) Can you look up the measured MIC of C[C@H]1COc2c(N3CCN(C)CC3)c(F)cc3c(=O)c(C(=O)O)cn1c23 [LEVOFLOXACIN] for me?
(A) 64 µM

(Q) Can you look up the measured MIC of "CCCc1cc(O)cc2c1Oc1c(Cl)c(O)c(Cl)c(CCC)c1C(=O)O2" for me?
(A) > 256 µM

(Q) Can you look up the measured MIC of "CCCc1cc(O)c(Cl)c2c1Oc1c(Cl)c(O)c(Cl)c(CCC)c1C(=O)O2" for me?
(A) 16 µM

(Q) Can you look up the measured MIC of "CCCc1c(Cl)c(OC)cc2c1Oc1c(Cl)c(O)c(Cl)c(CCC)c1C(=O)O2" for me?
(A) 256 µM

(Q) Can you look up the measured MIC of "CCCc1c(Cl)c(OC)c(Cl)c2c1Oc1c(Cl)c(O)c(Cl)c(CCC)c1C(=O)O2" for me?
(A) 4 µM

(Q) Can you look up the measured MIC of "CCCc1cc(O)cc2c1Oc1c(Cl)c(O)cc(CCC)c1C(=O)O2" for me?
(A) > 256 µM

(Q) Can you look up the measured MIC of "CCCc1c(Cl)c(O)c(Cl)c2c1Oc1c(Cl)c(O)c(Cl)c(CCC)c1C(=O)O2" for me?
(A) 64 µM

(Q) Can you look up the measured MIC of "CCCc1c(Cl)c(O)cc2c1Oc1c(Cl)c(O)c(Cl)c(CCC)c1C(=O)O2" for me?
(A) 32 µM

====

- System: Enterococcus faecalis
- test_name: Antibacterial activity against vancomycin-resistant Enterococcus faecalis 09-9 after 18 hrs by broth microdilution method
- Type: functional, organism-based
- condition_summary: 09-9, 18 h, read-out: IC50
property_name: MIC (µM)
Express the result in µM but write the number alone.

(Q) Can you look up the measured MIC of "CCCc1cc(O)c(Cl)c2c1Oc1c(Cl)c(O)c(Cl)c(CCC)c1C(=O)O2" for me?
(A) 16

(Q) Can you look up the measured MIC of "CCCc1c(Cl)c(O)cc2c1Oc1c(Cl)c(O)c(Cl)c(CCC)c1C(=O)O2" for me?
(A) 32

(Q) Can you look up the measured MIC of "CCCc1cc(O)cc2c1Oc1c(Cl)c(O)cc(CCC)c1C(=O)O2" for me?
(A) 256

(Q) Can you look up the measured MIC of "CCCc1c(Cl)c(OC)cc2c1Oc1c(Cl)c(O)c(Cl)c(CCC)c1C(=O)O2" for me?
(A) 256

(Q) Can you look up the measured MIC of "CCCc1c(Cl)c(OC)c(Cl)c2c1Oc1c(Cl)c(O)c(Cl)c(CCC)c1C(=O)O2" for me?
(A) 4

(Q) Can you look up the measured MIC of "CCCc1c(Cl)c(O)c(Cl)c2c1Oc1c(Cl)c(O)c(Cl)c(CCC)c1C(=O)O2" for me?
(A) 64

Provenance of the data: ChEMBL document CHEMBL3232998
